Reference source: patent US20220380310A1

# Assay System: Human P2X2 receptor (P2X2R) (Homo sapiens)
# Construct: expressed in transfected cells; host or cells: HEK-293
# Sequence (Q9UBL9 whole entry): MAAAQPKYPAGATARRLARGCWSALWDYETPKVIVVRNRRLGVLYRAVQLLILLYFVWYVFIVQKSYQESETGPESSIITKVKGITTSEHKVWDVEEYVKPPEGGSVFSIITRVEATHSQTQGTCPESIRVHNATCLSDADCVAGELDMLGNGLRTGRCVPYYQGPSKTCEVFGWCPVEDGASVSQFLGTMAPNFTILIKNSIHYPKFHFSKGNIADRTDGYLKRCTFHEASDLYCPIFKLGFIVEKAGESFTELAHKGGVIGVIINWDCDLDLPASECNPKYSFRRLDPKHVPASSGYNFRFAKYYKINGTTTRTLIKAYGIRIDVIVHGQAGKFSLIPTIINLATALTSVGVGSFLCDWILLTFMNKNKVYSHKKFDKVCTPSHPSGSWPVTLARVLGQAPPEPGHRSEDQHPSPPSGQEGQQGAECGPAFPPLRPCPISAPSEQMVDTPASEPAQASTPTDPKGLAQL
# Method Description: Yo-Pro-1 uptake assay, P2X2R transfected HEK-293 cells
# Format: cell-based
# Study Conditions: HEK293, compound at 5 μM, 5 μM ATP stimulus, read-out: Percentage of activity remains in the presence of the compound at 5 μM, P2X2R (Yo-Pro-1 Assay)
Could you please report measured remaining activity at 5 µM for the items listed next?
One number for each entry, in %.

Entry under review: CC(C)COc1ccc(S(=O)(=O)N2CCCC(NC(=O)CCc3ccccc3)C2)cc1 (stereo not drawn) [#6] . Reported remaining activity at 5 µM?
54.3

Entry under review: COCCOc1ccc(S(=O)(=O)N2CCCC(NC(=O)CCc3ccccc3)C2)cc1 (stereo not drawn) [#17] . Reported remaining activity at 5 µM?
91.6

Entry under review: CC(C)OC1CCN(c2ccc(S(=O)(=O)N3CCCC(NC(=O)CCc4ccccc4)C3)cc2)CC1 (stereo not drawn) [#39] . Reported remaining activity at 5 µM?
66.3

Entry under review: O=C(CCc1ccccc1)N1CCN(S(=O)(=O)c2ccc(NC3CCCCC3)cc2)CC1 [#33] . Reported remaining activity at 5 µM?
60.9

Entry under review: CC(C)(C)OC(=O)N1CCN(c2ccc(S(=O)(=O)N3CCC(C(=O)NCCc4ccccc4)CC3)cc2)CC1 [#22] . Reported remaining activity at 5 µM?
72

Entry under review: O=C(CCc1ccccc1)NC1CCCN(S(=O)(=O)c2ccc(OCc3ccccc3)cc2)C1 (stereo not drawn) [#4] . Reported remaining activity at 5 µM?
64.9

Quick batch: remaining activity at 5 µM for everything below.
1. O=C(CCc1ccccc1)N1CCN(S(=O)(=O)c2ccc(N3CCOCC3)cc2)CC1 [#32]
2. CN(C)c1ccc(S(=O)(=O)N2CCCC(NC(=O)CCc3ccccc3)C2)cc1 (stereo not drawn) [#14]

[79.9, 54.3]

Quick batch: remaining activity at 5 µM for everything below.
1. CCOc1ccc(S(=O)(=O)N2CCCC(NC(=O)CCc3ccccc3)C2)cc1 (stereo not drawn) [#37]
2. CCCCNc1ccc(S(=O)(=O)N2CCC(C(=O)O)CC2)cc1 [#27]
3. O=C(CCc1ccccc1)N1CCN(S(=O)(=O)c2ccc(N3CCCCC3)cc2)CC1 [#34]

[58.1, 55.4, 72.4]

Entry under review: O=C(CCc1ccccc1)NC1CCCN(S(=O)(=O)c2ccc(N3CCC(Oc4ccccc4)CC3)cc2)C1 (stereo not drawn) [#38] . Reported remaining activity at 5 µM?
57.6

---

Could you please report measured remaining activity at 5 µM for the items listed next?
# Assay System: P2X2R (Homo sapiens, UniProt Q9UBL9)
# Construct: expressed in transfected cells; host or cells: HEK-293
# Sequence (Q9UBL9 whole entry): as above
# Method Description: Receptor-mediated calcium entrance assay (Calcium Assay), P2X2R
# Assay type: cell-based
# Study Conditions: compound at 5 μM, read-out: Percentage of activity remains in the presence of the compound at 5 μM, P2X2R (Calcium Assay)
Answers are plain numbers, in %.

Quick batch: remaining activity at 5 µM for everything below.
1. O=C(CCc1ccccc1)NC1CCCN(S(=O)(=O)c2ccc(N3CCC(Oc4ccccc4)CC3)cc2)C1 (stereo not shown)
2. CC1CCCN(c2ccc(S(=O)(=O)N3CCCC(NC(=O)CCc4ccccc4)C3)cc2)C1 (stereo not shown)
3. O=C(CCc1ccccc1)NC1CCCN(S(=O)(=O)c2ccc(N3CCCCC3)c(Cl)c2)C1 (stereo not shown)

1. 52.2
2. 83
3. 49.4
